Test system: barnyardgrass
Assay: Test A pre-/postemergence herbicide test
Format: in vivo, Echinochloa crus-galli
Details: preemergence, 500 g ai/ha; 0 to 100 scale (0 no effect, 100 complete control)
Measured Plant response rating, Barnyardgrass by item

Guide cases for Plant response rating, Barnyardgrass, answers given:
MOLECULE	DATA VALUE
NC1=NCC(c2ccc(F)c(F)c2)C1C(=O)Nc1ccccc1F (stereo not drawn) [Compound 95]	90
O=C1NCC(c2ccc(Cl)nc2)C1C(=O)Nc1ccccc1C(F)(F)F (stereo not drawn) [Compound 42]	60
O=C1NCC(c2ccccc2)C1C(=O)Nc1ccccc1C(F)(F)F (racemic) [Compound 82]	50

Moving on to the next molecule.
(Q) Which measured Plant response rating, Barnyardgrass value corresponds to O=C1NCC(c2ccc(F)c(C(F)(F)F)c2)C1C(=O)Nc1ccccc1F (racemic) [Compound 76] ?
(A) 80

---

Below, each entry is listed with its recorded Plant response rating (scale of 0 to 100), Crabgrass, Large.
Test system: crabgrass, large
Test: Test C pre-/postemergence herbicide test
Assay type: in vivo, Digitaria sanguinalis
Details: Preemergence, 250 g ai/ha
Just the number, please.

MOLECULE	DATA VALUE
O=C1NCC(c2ccccc2)C1C(=O)Nc1ccccc1F (racemic) [Compound 81]	95
O=C1NCC(c2cccc(C(F)(F)F)c2)C1C(=O)Nc1ccc(F)cc1F (racemic) [Compound 207]	95
O=C1NCC(c2cc(F)cc(F)c2)C1C(=O)Nc1ccc(F)cc1F (racemic) [Compound 278]	100

(Q) Looking for the measured Plant response rating (scale of 0 to 100), Crabgrass, Large of O=C1NCC(c2ccc(C(F)(F)F)nc2)C1C(=O)Nc1cccc(F)c1F (racemic) [Compound 263] , can you help?
(A) 100

(Q) Form field: reported Plant response rating (scale of 0 to 100), Crabgrass, Large of O=C1NCC(c2ccc(C(F)(F)F)nc2)C1C(=O)Nc1ccccc1F (racemic) [Compound 262]
(A) 100

(Q) Would you kindly share the measured Plant response rating (scale of 0 to 100), Crabgrass, Large for O=C1NCC(c2cccc(Br)c2)C1C(=O)Nc1ccccc1F (stereo not shown) [Compound 307] ?
(A) 100

(Q) Query (molecule): O=C(Nc1ccccc1F)C1C(=S)NCC1c1cccc(C(F)(F)F)c1 (stereo not shown) [Compound 274] ; field requested: Plant response rating (scale of 0 to 100), Crabgrass, Large
(A) 100

---

System: ducksalad
Test: Test C flooded paddy test
Assay type: in vivo, Heteranthera limosa
Conditions: Flood, 31 g ai/ha; scale of 0 to 100 where 0 is no effect and 100 is complete control; 13 to 15 days
ENDPOINT LABEL: Plant response rating, Ducksalad
Please give the numeric answer without any surrounding text.

Here's what some known entries look like.
COMPOUND	STUDY TARGET	Plant response rating, Ducksalad
O=C1NCC(c2cccc(C(F)(F)F)c2)C1C(=O)Nc1ccccc1Cl (stereo not drawn)	ducksalad	50
O=C1NCC(c2cccc(C(F)(F)F)c2)C1C(=O)Nc1ccccc1F (racemic)	ducksalad	40
CC1NC(=O)C(C(=O)Nc2ccccc2F)C1c1ccc(F)c(F)c1 (mixture of isomers)	ducksalad	0

(Q) // map O=C1NCC(c2ccc(F)c(F)c2)C1C(=O)Nc1ccccc1[N+](=O)[O-] (racemic) to recorded Plant response rating, Ducksalad (system: ducksalad)
(A) 0

(Q) Missing value: Plant response rating, Ducksalad, ducksalad, entry O=C1NCC(c2ccc(F)cc2)C1C(=O)Nc1cccc(F)c1F (racemic) . Fill in?
(A) 100

(Q) Provide value of Plant response rating, Ducksalad for this record tested with ducksalad: O=C1NCC(c2cccc(F)c2)C1C(=O)Nc1ccccc1F (racemic)
(A) 0
